Molecular target: TRPV1 human (Homo sapiens)
Construct: expressed in transfected cells; host or cells: CHO K1 cells
Sequence (Q8NER1 whole entry): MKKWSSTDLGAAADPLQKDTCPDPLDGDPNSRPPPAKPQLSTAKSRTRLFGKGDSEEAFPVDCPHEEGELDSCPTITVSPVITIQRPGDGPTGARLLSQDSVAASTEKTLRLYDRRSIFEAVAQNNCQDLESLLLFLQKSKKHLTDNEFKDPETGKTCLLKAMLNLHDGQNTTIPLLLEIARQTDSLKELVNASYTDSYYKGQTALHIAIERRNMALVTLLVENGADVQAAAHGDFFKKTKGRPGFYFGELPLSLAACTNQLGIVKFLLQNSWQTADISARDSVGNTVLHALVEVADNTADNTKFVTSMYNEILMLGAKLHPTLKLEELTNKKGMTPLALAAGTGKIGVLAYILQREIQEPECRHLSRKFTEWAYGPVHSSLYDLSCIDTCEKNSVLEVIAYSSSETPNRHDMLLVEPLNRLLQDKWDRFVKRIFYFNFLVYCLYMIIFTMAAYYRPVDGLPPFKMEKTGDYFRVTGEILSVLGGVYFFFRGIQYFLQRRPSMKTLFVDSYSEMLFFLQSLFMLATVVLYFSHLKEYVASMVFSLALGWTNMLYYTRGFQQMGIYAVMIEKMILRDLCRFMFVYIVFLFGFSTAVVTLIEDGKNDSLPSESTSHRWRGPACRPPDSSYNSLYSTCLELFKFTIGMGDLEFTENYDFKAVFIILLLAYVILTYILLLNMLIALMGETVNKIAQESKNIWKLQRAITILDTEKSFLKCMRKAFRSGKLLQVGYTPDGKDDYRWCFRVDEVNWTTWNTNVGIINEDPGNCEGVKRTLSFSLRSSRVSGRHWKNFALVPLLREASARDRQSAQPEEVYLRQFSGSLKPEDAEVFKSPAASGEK
Experiment: Functional FLIPR Ca2+ influx assay on vanilloid receptor 1 (VR1/TRPV1), capsaicin stimulus
Type: cell-based
Conditions: functional (f), vs capsaicin (CAP); Ki from IC50 by Cheng-Prusoff
Parameter: Ki (nM)

[P] O=C(Cc1ccccn1)NCc1ccc(C(F)(F)F)nc1-c1cccc(Cl)c1 [compound 5]
[Q] COc1ccc(C(C)C(=O)NCc2ccc(C(F)(F)F)nc2N2CCC(C)CC2)cn1 (stereo not shown) [compound 120]
[R] CC1CCN(c2nc(C(F)(F)F)ccc2CNC(=O)Nc2ccc(N3CC(O)C3)nc2)CC1 [compound 108]
Task: Rank the items above by Ki, largest value first. Field: ranking. Enter the labels in the order requested.
Result: P, Q, R
(P: 91 nM, Q: 44 nM, R: 12 nM)

* * *

Molecular target: TRPV1 human (Homo sapiens)
Construct: expressed in transfected cells; host or cells: CHO K1 cells
Test: Functional FLIPR Ca2+ influx assay on vanilloid receptor 1 (VR1/TRPV1), capsaicin stimulus
Type: cell-based
Settings: functional (f), vs capsaicin (CAP); Ki from IC50 by Cheng-Prusoff
Parameter: Ki (nM)

Some entries whose results are on file:
[
  {
    "Compound": "CC1CCN(c2nc(C(F)(F)F)ccc2CNC(=O)C(C)c2ccc(NCCO)nc2)CC1 (centres unmarked)",
    "Ki / nM": 2
  },
  {
    "Compound": "CC(C(=O)NCc1ccc(C(F)(F)F)nc1N1CCCCC1)c1cnc(C(=O)Nc2ccc(F)cc2)nc1 (centres unmarked)",
    "Ki / nM": 11
  },
  {
    "Compound": "O=C(Cc1ccccn1)NCc1ccc(C(F)(F)F)nc1N1CCCC1",
    "Ki / nM": 73
  },
  {
    "Compound": "CC1CCN(c2nc(C(F)(F)F)ccc2CNC(=O)Cc2cccnc2)CC1",
    "Ki / nM": 6
  }
]

[1] CC1CCN(c2nc(C(F)(F)F)ccc2CNC(=O)Cc2ccncn2)CC1
[2] CC1CCN(c2nc(C(F)(F)F)ccc2CNC(=O)Nc2ccc(C(O)CO)nc2)CC1 (centres unmarked)
Task: Please indicate which item has the smaller measured Ki: 1 versus 2 // caller expects the label of the chosen entry
Result: 1

[I] CC1CCN(c2nc(C(F)(F)F)ccc2CNC(=O)Nc2ccc(CO)nc2)CC1
[II] CC1CCN(c2nc(C(F)(F)F)ccc2CNC(=O)Nc2ccc(N(C)CCO)nc2)CC1
Task: Between I and II , whose recorded Ki is greater? // caller expects the label of the chosen entry
Result: II
